Measured IC50, listed per entry.
# System Tested: Androgen receptor (Homo sapiens, UniProt P10275)
# Sequence (P10275 whole entry): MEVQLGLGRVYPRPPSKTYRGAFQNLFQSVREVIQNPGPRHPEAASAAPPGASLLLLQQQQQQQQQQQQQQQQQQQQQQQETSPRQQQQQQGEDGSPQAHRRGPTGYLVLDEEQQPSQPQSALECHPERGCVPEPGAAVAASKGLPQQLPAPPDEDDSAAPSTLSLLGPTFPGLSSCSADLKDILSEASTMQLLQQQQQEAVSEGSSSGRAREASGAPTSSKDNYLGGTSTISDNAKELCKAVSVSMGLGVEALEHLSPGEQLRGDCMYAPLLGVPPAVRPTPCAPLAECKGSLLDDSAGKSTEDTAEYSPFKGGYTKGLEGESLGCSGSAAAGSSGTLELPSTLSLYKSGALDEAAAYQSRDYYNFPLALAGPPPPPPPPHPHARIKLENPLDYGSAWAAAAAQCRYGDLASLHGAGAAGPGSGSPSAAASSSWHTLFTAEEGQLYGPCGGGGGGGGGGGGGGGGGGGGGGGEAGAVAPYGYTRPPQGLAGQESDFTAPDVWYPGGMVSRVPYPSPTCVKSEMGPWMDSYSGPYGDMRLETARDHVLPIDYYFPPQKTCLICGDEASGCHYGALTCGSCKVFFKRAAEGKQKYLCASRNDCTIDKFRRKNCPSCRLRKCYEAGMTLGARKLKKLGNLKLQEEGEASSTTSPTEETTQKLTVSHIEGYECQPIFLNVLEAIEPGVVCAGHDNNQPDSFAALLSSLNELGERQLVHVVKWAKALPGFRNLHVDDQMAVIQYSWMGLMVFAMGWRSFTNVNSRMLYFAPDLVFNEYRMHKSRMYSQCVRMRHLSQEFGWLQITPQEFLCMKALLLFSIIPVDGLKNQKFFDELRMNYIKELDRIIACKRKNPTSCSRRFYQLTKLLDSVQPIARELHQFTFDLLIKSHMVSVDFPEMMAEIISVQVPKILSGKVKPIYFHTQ
Answer in nM, number only, no unit symbol.

compound=CC1=CC(C)(C)Nc2cc3c(cc21)c(C(F)(F)F)cc(=O)n3C system_tested="Androgen receptor (Homo sapiens, UniProt P10275)" value_observed=34

Please fill in: IC50 reported for CC1CC(C)(C)Nc2cc3c(cc21)c(C(F)(F)F)cc(=O)n3C (stereo unspecified) = 73

Please fill in: IC50 reported for CC1=CC(C)(C)N(C)c2cc3nc(O)cc(C(F)(F)F)c3cc21 = 156

Please fill in: IC50 reported for CCC1(C)CCc2cc3c(C(F)(F)F)cc(=O)n(C)c3cc2N1C (stereo unspecified) = 24

Please fill in: IC50 reported for CCC1CC(C)(C)Nc2cc3nc(O)cc(C(F)(F)F)c3cc21 (stereo unspecified) = 27

Please fill in: IC50 reported for CN1c2cc3c(cc2CCC1(C)C)c(C(F)(F)F)cc(=O)n3C = 19

Please fill in: IC50 reported for CCC1(C)CCc2cc3c(C(F)(F)F)cc(=O)n(C)c3cc2N1 (stereo unspecified) = 48
